- assayed target: Kinesin-like protein KIF11 (Homo sapiens)
- Sequence (P52732 whole entry): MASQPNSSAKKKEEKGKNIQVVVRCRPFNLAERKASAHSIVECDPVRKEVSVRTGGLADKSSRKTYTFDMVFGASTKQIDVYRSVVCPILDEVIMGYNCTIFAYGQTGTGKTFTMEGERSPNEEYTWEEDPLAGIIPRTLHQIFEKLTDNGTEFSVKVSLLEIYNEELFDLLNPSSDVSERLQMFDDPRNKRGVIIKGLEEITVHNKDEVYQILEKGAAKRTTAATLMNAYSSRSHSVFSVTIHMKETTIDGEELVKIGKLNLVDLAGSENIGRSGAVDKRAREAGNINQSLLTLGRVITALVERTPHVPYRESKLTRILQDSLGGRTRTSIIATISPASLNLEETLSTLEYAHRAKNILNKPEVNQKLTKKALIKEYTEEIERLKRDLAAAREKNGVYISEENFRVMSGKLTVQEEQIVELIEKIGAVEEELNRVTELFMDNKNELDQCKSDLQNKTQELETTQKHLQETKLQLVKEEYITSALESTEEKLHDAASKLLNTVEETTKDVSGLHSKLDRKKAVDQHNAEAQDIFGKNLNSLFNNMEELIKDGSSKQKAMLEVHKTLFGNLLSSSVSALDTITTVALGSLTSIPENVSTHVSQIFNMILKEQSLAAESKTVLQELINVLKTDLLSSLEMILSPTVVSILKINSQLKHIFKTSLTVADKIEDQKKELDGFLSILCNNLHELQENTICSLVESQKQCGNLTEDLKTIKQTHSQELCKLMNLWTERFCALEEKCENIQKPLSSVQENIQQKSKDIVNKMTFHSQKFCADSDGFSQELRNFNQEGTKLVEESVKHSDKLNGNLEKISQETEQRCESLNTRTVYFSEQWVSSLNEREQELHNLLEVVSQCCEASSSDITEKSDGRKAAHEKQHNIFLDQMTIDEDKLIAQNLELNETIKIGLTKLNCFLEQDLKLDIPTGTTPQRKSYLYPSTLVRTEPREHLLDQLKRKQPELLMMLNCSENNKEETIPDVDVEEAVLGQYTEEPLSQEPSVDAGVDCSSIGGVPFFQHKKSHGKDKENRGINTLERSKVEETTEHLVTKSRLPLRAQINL
- assay details: Inhibition of MT-stimulated EG5 ATPase activity (unknown origin) by pyruvate kinase/lactate dehydrogenase enzyme coupled photometric assay
- condition info: read-out: IC50
pIC50: −log10 of the molar value.
property name: pIC50

// worked examples, pIC50 included
>>> print(df.to_string())
                                   compound                            assayed_target  value_measured
0  CC(=O)N1N=C(NC2=NC(=O)/C(=C/c3cccc(Cl)c3)S2)SC1(C)c1ccccc1 (stereo not drawn)  Kinesin-like protein KIF11 (Homo sapiens)            4.32
1  CC(=O)N1N=C(NC2=NC(=O)/C(=C/c3ccc(Cl)cc3)S2)SC1(C)c1ccccc1 (stereo not drawn)  Kinesin-like protein KIF11 (Homo sapiens)            3.97
2  CC(=O)N1N=C(NC2=NC(=O)/C(=C/c3ccc(C)cc3)S2)SC1(C)c1ccccc1 (stereo not drawn)  Kinesin-like protein KIF11 (Homo sapiens)            4.20
3  COc1cccc(/C=C2\SC(NC3=NN(C(C)=O)C(C)(c4ccccc4)S3)=NC2=O)c1OC (stereo not drawn)  Kinesin-like protein KIF11 (Homo sapiens)            4.14
4  COc1ccc(/C=C2\SC(NC3=NN(C(C)=O)C(C)(c4ccccc4)S3)=NC2=O)cc1 (stereo not drawn)  Kinesin-like protein KIF11 (Homo sapiens)            4.37

1. CC(=O)N1N=C(NC2=NC(=O)/C(=C/c3ccccc3)S2)SC1(C)c1ccccc1 (stereo not drawn)
2. CC(=O)N1N=C(NC2=NC(=O)/C(=C/c3cccc([N+](=O)[O-])c3)S2)SC1(C)c1ccccc1 (stereo not drawn)
3. CC(=O)N1N=C(NC2=NC(=O)/C(=C/c3ccccc3Cl)S2)SC1(C)c1ccccc1 (stereo not drawn)
4. CC(=O)N1N=C(NC2=NC(=O)/C(=C/c3cccs3)S2)SC1(C)c1ccccc1 (stereo not drawn)
Input line: Please list these compounds in decreasing order of pIC50. Could you list the labels in the order requested?
Output line: 3, 2, 1, 4
(3: 4.88, 2: 4.56, 1: 4.21, 4: 3.87)
